- systemTested: CaMKIV transiently expressed in HEK293 cells (Homo sapiens)
- Sequence (Q16566 whole entry): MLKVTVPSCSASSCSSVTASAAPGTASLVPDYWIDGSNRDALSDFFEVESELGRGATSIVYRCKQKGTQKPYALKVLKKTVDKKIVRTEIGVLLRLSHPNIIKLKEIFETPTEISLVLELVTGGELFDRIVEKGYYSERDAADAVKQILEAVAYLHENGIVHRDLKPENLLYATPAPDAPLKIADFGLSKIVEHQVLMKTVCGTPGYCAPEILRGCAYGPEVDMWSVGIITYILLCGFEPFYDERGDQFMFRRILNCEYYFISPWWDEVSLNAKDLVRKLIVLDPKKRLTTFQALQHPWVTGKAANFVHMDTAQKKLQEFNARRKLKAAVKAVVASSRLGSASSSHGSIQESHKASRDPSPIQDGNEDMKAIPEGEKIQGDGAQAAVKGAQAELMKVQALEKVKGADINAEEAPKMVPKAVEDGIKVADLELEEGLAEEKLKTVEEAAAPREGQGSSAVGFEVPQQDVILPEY
- testMethodNotes: CREB luciferase reporter assay of CaMKIV activity in ionomycin-treated HEK293 cells transiently expressing CaMKIV
- measurementContext: HEK293 transiently expressing CaMKIV; 5 μM ionomycin; n=4 wells; read-out: IC50 for inhibition of CaMKIV (CREB activity)
assayMetric: IC50 (nM)

• CN([C@@H](Cc1ccc(OS(=O)(=O)c2cccc3cnccc23)cc1)C(=O)N1CCN(c2ccccc2)CC1)S(=O)(=O)c1cccc2cnccc12 = 1060
• COc1ccc(S(=O)(=O)N(CCO)c2ccccc2CN(C)CC=Cc2ccc(Cl)cc2)cc1 = 580
